test_system: Opioid receptors; mu & delta (Rattus norvegicus) (UniProt P33533+P33535)
Sequence (P33533 whole entry, looked up): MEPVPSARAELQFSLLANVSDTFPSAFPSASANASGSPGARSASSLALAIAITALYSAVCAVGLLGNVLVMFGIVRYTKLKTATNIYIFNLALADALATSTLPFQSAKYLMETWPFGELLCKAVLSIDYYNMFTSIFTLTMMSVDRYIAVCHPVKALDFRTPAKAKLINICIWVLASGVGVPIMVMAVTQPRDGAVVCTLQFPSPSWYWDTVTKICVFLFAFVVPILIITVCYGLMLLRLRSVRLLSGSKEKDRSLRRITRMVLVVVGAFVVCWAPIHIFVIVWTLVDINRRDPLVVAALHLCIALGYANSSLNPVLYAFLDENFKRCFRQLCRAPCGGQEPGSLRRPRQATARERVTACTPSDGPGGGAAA
Sequence (P33535 whole entry, looked up): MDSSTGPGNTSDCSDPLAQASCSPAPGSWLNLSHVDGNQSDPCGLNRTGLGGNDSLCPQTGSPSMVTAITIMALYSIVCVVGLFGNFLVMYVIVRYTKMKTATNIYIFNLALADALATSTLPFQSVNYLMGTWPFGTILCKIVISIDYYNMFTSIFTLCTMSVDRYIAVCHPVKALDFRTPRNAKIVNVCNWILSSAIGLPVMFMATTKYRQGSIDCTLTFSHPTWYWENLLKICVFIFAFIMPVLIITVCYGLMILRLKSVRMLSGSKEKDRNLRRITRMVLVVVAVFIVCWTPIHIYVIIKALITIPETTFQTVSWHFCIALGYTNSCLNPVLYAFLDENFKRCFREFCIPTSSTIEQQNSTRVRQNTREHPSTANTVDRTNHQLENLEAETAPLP
test_summary: Ratio of selective binding affinity of mu receptor to that of delta opioid receptor
Assay type: protein assay
parameter_measured: Ratio

Consider the reported Ratio for these compounds:
[
  {
    "compound": "C[C@@H](O)[C@@H]1NC(=O)[C@H](CCCCN)NC(=O)C(Cc2c[nH]c3ccccc23)NC(=O)[C@H](Cc2ccc(O)cc2)NC(=O)[C@@H](NC(=O)[C@H](N)Cc2ccccc2)CSSC(C)(C)[C@@H](C(=O)N[C@@H](CC(N)=O)C(N)=O)NC1=O (stereo in doubt)",
    "Ratio": "> 77"
  },
  {
    "compound": "C[C@@H](O)[C@@H]1NC(=O)[C@H](CCCCN)NC(=O)C(Cc2c[nH]c3ccccc23)NC(=O)[C@H](Cc2ccc(O)cc2)NC(=O)[C@@H](NC(=O)[C@H](N)Cc2ccccc2)CSSC(C)(C)[C@@H](C(=O)N[C@@H](CO)C(N)=O)NC1=O (stereo in doubt)",
    "Ratio": "> 490"
  },
  {
    "compound": "C[C@@H](O)[C@@H]1NC(=O)[C@H](CCCN)NC(=O)C(Cc2c[nH]c3ccccc23)NC(=O)[C@H](Cc2ccc(O)cc2)NC(=O)[C@@H](NC(=O)[C@H](N)Cc2ccccc2)CSSC(C)(C)[C@@H](C(N)=O)NC1=O (stereo in doubt)",
    "Ratio": "> 53"
  },
  {
    "compound": "C[C@@H](O)[C@@H]1NC(=O)[C@H](CCCCN)NC(=O)C(Cc2c[nH]c3ccccc23)NC(=O)[C@H](Cc2ccc(O)cc2)NC(=O)[C@@H](NC(=O)[C@H](N)Cc2ccccc2)CSSC(C)(C)[C@@H](C(=O)N[C@@H](CC(=O)O)C(N)=O)NC1=O (stereo in doubt)",
    "Ratio": "> 2.9"
  },
  {
    "compound": "C[C@@H](O)[C@H](NC(=O)[C@H]1NC(=O)[C@H]([C@@H](C)O)NC(=O)[C@H](CCCCN)NC(=O)C(Cc2c[nH]c3ccccc23)NC(=O)[C@H](Cc2ccc(O)cc2)NC(=O)[C@@H](NC(=O)C(N)Cc2c[nH]c3ccccc23)CSSC1(C)C)C(N)=O (stereo in doubt)",
    "Ratio": "> 1590"
  },
  {
    "compound": "CN[C@H](Cc1ccccc1)C(=O)N[C@H]1CSSC(C)(C)[C@@H](C(=O)N[C@H](C(N)=O)[C@@H](C)O)NC(=O)[C@H]([C@@H](C)O)NC(=O)[C@H](CCCN)NC(=O)C(Cc2c[nH]c3ccccc23)NC(=O)[C@H](Cc2ccc(O)cc2)NC1=O (stereo in doubt)",
    "Ratio": "> 35"
  }
]

What the record says about C[C@@H](O)[C@H](NC(=O)[C@H]1NC(=O)[C@H](CC(N)=O)NC(=O)[C@H](Cc2ccccc2)NC(=O)[C@@H](NC(=O)[C@@H](N)Cc2ccc(O)cc2)CSSC1(C)C)C(N)=O : Ratio is > 1.3

What the record says about C[C@@H](O)[C@@H]1NC(=O)[C@H](CCCCN)NC(=O)C(Cc2c[nH]c3ccccc23)NC(=O)[C@H](Cc2ccc(O)cc2)NC(=O)[C@@H](NC(=O)[C@H](N)Cc2ccccc2)CSSC(C)(C)[C@@H](C(N)=O)NC1=O (stereo in doubt) : Ratio is > 87

What the record says about C[C@@H](O)[C@H](NC(=O)[C@H]1NC(=O)[C@H](CCCCN)NC(=O)C(Cc2c[nH]c3ccccc23)NC(=O)[C@@H](Cc2ccc(O)cc2)NC(=O)[C@@H](NC(=O)[C@H]2Cc3ccccc3CN2)CSSC1(C)C)C(N)=O (stereo in doubt) : Ratio is > 1
